system: rat small-intestinal brush border membrane vesicles; experiment: Inhibitory effect on 33PO4 uptake into rat small-intestinal brush border membrane vesicles (rapid filtration method); assay type: biochemical, Wistar female rat; conditions: 1 µM test compound; 33PO4 uptake into rat small-intestinal BBMVs, 60 seconds
Observation type: Rate of uptake inhibition (%) (1 µM)
Record the value in %, omitting the unit from your answer.

Smiles code	Observation type	Readout number
C[C@]12CCCN1N(Cc1c(Cl)cc(OCCN3CCOCC3)cc1Cl)C(=O)C(C(=O)Nc1ccc(C(F)(F)F)nc1-c1ccc(C(F)(F)F)nc1)=C2O.Cl	Rate of uptake inhibition (%) (1 µM)	75
CC(C)[C@@H]1C(O)=C(C(=O)Nc2ccc(Cl)cc2-c2cc(C(F)(F)F)ncn2)C(=O)N(Cc2cccc(F)c2F)N1C	Rate of uptake inhibition (%) (1 µM)	52
COCC(C)(C)N(C)CCOc1ccc(CN2C(=O)C(C(=O)Nc3ccc(C(F)(F)F)cc3-c3cc(C(F)(F)F)ncn3)=C(O)C3(CCCC3)N2C)c(F)c1F	Rate of uptake inhibition (%) (1 µM)	38
CN(CCOCCC(=O)N(C)C[C@H](O)[C@@H](O)[C@H](O)[C@H](O)CO)CCOc1ccc(CN2C(=O)C(C(=O)Nc3ccc(C(F)(F)F)cc3-c3cc(C(F)(F)F)ncn3)=C(O)C3(CCCC3)N2C)c(F)c1F	Rate of uptake inhibition (%) (1 µM)	5
COc1c(C#N)ncnc1-c1cc(C(F)(F)F)ccc1NC(=O)C1=C(O)[C@@]2(C)CCCN2N(Cc2cccc(F)c2F)C1=O	Rate of uptake inhibition (%) (1 µM)	82
CN1N(Cc2ccc(OCCNC(CC(=O)O)CC(=O)O)c(F)c2F)C(=O)C(C(=O)Nc2ccc(C(F)(F)F)cc2-c2cc(C(F)(F)F)ncn2)=C(O)C12CCCC2	Rate of uptake inhibition (%) (1 µM)	21
CC(C)[C@H]1C(O)=C(C(=O)Nc2ccc(Cl)cc2-c2ccc(C(F)(F)F)nc2)C(=O)N(Cc2ccc(OCCN3CCOCC3)c(F)c2F)N1C	Rate of uptake inhibition (%) (1 µM)	41
COCCN(C)CCN(C)c1ccc(CN2C(=O)C(C(=O)Nc3ccc(C(F)(F)F)cc3-c3cc(C(F)(F)F)ncn3)=C(O)C3(CCCC3)N2C)c(F)c1F	Rate of uptake inhibition (%) (1 µM)	24

input: Find the recorded Rate of uptake inhibition (%) (1 µM) belonging to CSc1ccc(-c2cc(Cl)ccc2NC(=O)C2=C(O)[C@H](C(C)(C)C)N(C)N(Cc3ccc(OCCN4CCOCC4)c(F)c3F)C2=O)cn1 and report it.
output: 80

input: Which Rate of uptake inhibition (%) (1 µM) is reported for this molecule? CN(CCOCCOCCOCCOCCOc1ccc(CN2C(=O)C(C(=O)Nc3ccc(C(F)(F)F)cc3-c3cc(C(F)(F)F)ncn3)=C(O)C3(CCCC3)N2C)c(F)c1F)C[C@@H](O)[C@H](O)[C@@H](O)[C@@H](O)CO
output: 24

input: Reported Rate of uptake inhibition (%) (1 µM) for CN(C)S(=O)(=O)N1CCC(c2cc(C(F)(F)F)ccc2NC(=O)C2=C(O)[C@@]3(C)CCCN3N(Cc3cccc(F)c3F)C2=O)CC1 : what is it?
output: 57

----------
system: rat small-intestinal brush border membrane vesicles; experiment: Inhibitory effect on 33PO4 uptake into rat small-intestinal brush border membrane vesicles (rapid filtration method); format: biochemical, Wistar female rat; conditions: 1 µM test compound; 33PO4 uptake into rat small-intestinal BBMVs, 60 seconds
// Rate of uptake inhibition (%) (1 µM) lookup, one value per entry
Your answer should be a plain number; it is taken to be in %.

Please review the following examples before continuing.
> print(dat)
                                smiles.code  readout.number
1  CN1N(Cc2ccc(OC(C)(C)CN3CCOCC3)c(F)c2F)C(=O)C(C(=O)Nc2ccc(C(F)(F)F)cc2-c2cc(C(F)(F)F)ncn2)=C(O)C12CCC2              30
2  CN(CCOc1ccc(CN2C(=O)C(C(=O)Nc3ccc(C(F)(F)F)cc3-c3cc(C(F)(F)F)ncn3)=C(O)C3(CCC3)N2C)c(F)c1F)C1COC1              54
3  C[C@]12CCCN1N(Cc1ccc(OCCCCCCOC[C@H](O)CO)c(F)c1F)C(=O)C(C(=O)Nc1cnc(C(F)(F)F)nc1-c1ccc(C(F)(F)F)nc1)=C2O              59
4  COC[C@@H]1CCCN1CCOc1ccc(CN2C(=O)C(C(=O)Nc3ccc(C(F)(F)F)cc3-c3cc(C(F)(F)F)ncn3)=C(O)C3(CCC3)N2C)c(F)c1F              73
5  C[C@]12CCCN1N(Cc1cccc(F)c1F)C(=O)C(C(=O)Nc1ccc(C(F)(F)F)cc1-c1ncnc(C#N)c1Cl)=C2O              84

input: Name the recorded Rate of uptake inhibition (%) (1 µM) for CN1N(Cc2ccc(OCCN3CCN(CCO)CC3)c(F)c2F)C(=O)C(C(=O)Nc2ccc(C(F)(F)F)cc2-c2cc(C(F)(F)F)ncn2)=C(O)C12CCC2 .
output: 21

----------
tested on: rat small-intestinal brush border membrane vesicles; assay: Inhibitory effect on 33PO4 uptake into rat small-intestinal brush border membrane vesicles (rapid filtration method); assay type: biochemical, Wistar female rat; conditions: 1 µM test compound; 33PO4 uptake into rat small-intestinal BBMVs, 60 seconds
Observation type: Rate of uptake inhibition (%) (1 µM)
Kindly answer with a numeric value in %, unit omitted.

Compound	Rate of uptake inhibition (%) (1 µM)
CC(CN1CCOCC1)Oc1ccc(CN2C(=O)C(C(=O)Nc3ccc(C(F)(F)F)cc3-c3cc(C(F)(F)F)ncn3)=C(O)C3(CCC3)N2C)c(F)c1F (stereo not drawn)	47
CN1N(Cc2ccc(OCCN3CCOCC3)c(F)c2F)C(=O)C(C(=O)Nc2ccc(C(F)(F)F)cc2-c2cc(C(F)(F)F)ncn2)=C(O)C12CCCC2	43

input: What measured Rate of uptake inhibition (%) (1 µM) goes with C[C@]12CCCN1N(Cc1ccccc1C#N)C(=O)C(C(=O)Nc1ccc(C(F)(F)F)cc1-c1cc(C(F)(F)F)ncn1)=C2O ?
output: 81

input: Which Rate of uptake inhibition (%) (1 µM) value belongs to C[C@]12CCCN1N(Cc1ccc(F)cc1)C(=O)C(C(=O)Nc1ccc(C(F)(F)F)cc1-c1cc(C(F)(F)F)ncn1)=C2O ?
output: 90

input: # query: Rate of uptake inhibition (%) (1 µM) of entry CN1N(Cc2cccc(F)c2F)C(=O)C(C(=O)Nc2ccc(C(F)(F)F)cc2-c2ncnc(C#N)c2Cl)=C(O)C1(C)C
output: 74

input: Any idea what its Rate of uptake inhibition (%) (1 µM) is? The compound is CN(C[C@H](O)[C@@H](O)[C@H](O)[C@H](O)CO)C(=O)CCOCCOCCOc1ccc(CN2C(=O)C(C(=O)Nc3ccc(C(F)(F)F)cc3-c3cc(C(F)(F)F)ncn3)=C(O)C3(CCCC3)N2C)c(F)c1F
output: 29

input: Dear colleague, I am looking for the recorded Rate of uptake inhibition (%) (1 µM) of the following compound: Cc1c(C#N)ncnc1-c1cc(C(F)(F)F)ccc1NC(=O)C1=C(O)[C@@]2(C)CCCN2N(Cc2ccc(OCCN3CCOCC3)c(F)c2F)C1=O
output: 50

----------
test system: rat small-intestinal brush border membrane vesicles; assay: Inhibitory effect on 33PO4 uptake into rat small-intestinal brush border membrane vesicles (rapid filtration method); format: biochemical, Wistar female rat; settings: 1 µM test compound; 33PO4 uptake into rat small-intestinal BBMVs, 60 seconds
The threshold is inclusive: Rate of uptake inhibition (%) (1 µM) of exactly 70% counts as class 1; values below receive class 0.

> print(dat)
                                smiles.code                                    target  discrete.label
1  COc1cc(C)c(-c2cc(C(F)(F)F)ccc2NC(=O)C2=C(O)[C@@]3(C)CCCN3N(Cc3cccc(F)c3F)C2=O)cn1  rat small-intestinal brush border membrane vesicles         class 1

input: Confirm if Rate of uptake inhibition (%) (1 µM) reported for the compound CN1[C@@H](C(C)(C)C)C(O)=C(C(=O)Nc2ccc(Cl)cc2-c2cc(C(F)(F)F)ncn2)C(=O)N1Cc1ccc(OCCN2CCOCC2)c(F)c1F is 70% or above.
output: class 0

input: Is the recorded value of Rate of uptake inhibition (%) (1 µM) equal to or greater than 70% for this compound? CN(CCOc1ccc(CN2C(=O)C(C(=O)Nc3ccc(C(F)(F)F)cc3-c3cc(C(F)(F)F)ncn3)=C(O)C3(CCCC3)N2C)c(F)c1F)C1CCOCC1
output: class 0

input: Rate of uptake inhibition (%) (1 µM) >= 70% for Cc1c(C#N)ncnc1-c1cc(C(F)(F)F)ccc1NC(=O)C1=C(O)[C@@]2(C)CCCN2N(Cc2cccc(F)c2F)C1=O ?
output: class 1

input: Reported Rate of uptake inhibition (%) (1 µM) reaches at least 70% for CN1N(Cc2ccc(OCCCOC[C@H](O)CO)c(F)c2F)C(=O)C(C(=O)Nc2ccc(C(F)(F)F)cc2-c2cc(C(F)(F)F)ncn2)=C(O)C12CCC2 ?
output: class 0
